# system_tested: T1, Soluble mouse EPOR chimera protein (R&D Systems) (mouse, UniProt P14753 25-249)
# T1 construct: extracellular domain; Bought from R&D Systems; Amine-coupled to the SPR chip; also called erythropoietin receptor
# T1 sequence (looked up): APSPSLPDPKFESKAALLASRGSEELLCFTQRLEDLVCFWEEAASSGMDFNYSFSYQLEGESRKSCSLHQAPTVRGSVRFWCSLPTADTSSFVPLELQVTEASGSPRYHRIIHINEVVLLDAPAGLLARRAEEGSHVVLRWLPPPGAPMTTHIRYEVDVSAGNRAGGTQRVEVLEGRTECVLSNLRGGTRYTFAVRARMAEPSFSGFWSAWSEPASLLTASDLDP
# method: SPR, mouse EPOR chimera amine-coupled to chip, peptide as analyte
pKd: −log10 of the molar value.
Measured pKd of individual entries
measured_attribute: pKd

[[record]]
binder = "AGLRSRAHLRRALA (Synthetic monomer) [ML5-1]"
reading = 4.11

[[record]]
binder = "TKVNFYAWKR (Synthetic monomer) [ML3]"
reading = 4.83

[[record]]
binder = "LQLHVLKRVSGLLSHTMLLKALG (Synthetic monomer) [ML1-1]"
reading = 5.97

[[record]]
binder = "SGLRSLTTLLRALGAQKEAI (Synthetic monomer) [ML6]"
reading = 3.05

[[record]]
binder = "NKAVAGLRSLTVN (Synthetic monomer) [ML8-1]"
reading = 2.63

[[record]]
binder = "RHVQKAESGLRSLTKLLREL (Synthetic monomer) [ML2-1]"
reading = 4.84

[[record]]
binder = "DEALDLEVDKAATGLRTLTTLIRAL (Synthetic monomer) [ML7-1]"
reading = 4.20

[[record]]
binder = "LHVDKAVSGLRSLTTLLRAL (Synthetic monomer) [ML2]"
reading = 3.56

[[record]]
binder = "KGLRSLISLLRALGAQKEAI (Synthetic monomer) [ML6-1]"
reading = 3.80

[[record]]
binder = "DKAVSGLRSLTTLLRAL (Synthetic monomer) [ML8]"
reading = 3.35

[[record]]
binder = "SGLRSLTTLLRALG (Synthetic monomer) [ML5]"
reading = 6.48

[[record]]
binder = "DKAVSGLRSLTTLLRALGAQKEAI (Synthetic monomer) [ML4]"
reading = 5.00

[[record]]
binder = "TRVNYQAWKR (Synthetic monomer) [ML3-1]"
reading = 5.37

[[record]]
binder = "LQLHVDKAVSGLRSLTTLLRALG (Synthetic monomer made by solid phase peptide synthesis; also called erythropoietin-derived peptide ML1) [ML1]"
reading = 5.19

